Attribution: paper PMC6366418

Here, each record is paired with measured pKi data.
# assay target: α-amylase from porcine pancreas (Sus scrofa, UniProt P00690)
# Construct: α-Amylase from porcine pancreas; purchased Sigma-Aldrich Co. LLC (St. Louis, MO); host or cells: porcine pancreas (tissue-derived commercial preparation)
# Sequence (P00690 16-511): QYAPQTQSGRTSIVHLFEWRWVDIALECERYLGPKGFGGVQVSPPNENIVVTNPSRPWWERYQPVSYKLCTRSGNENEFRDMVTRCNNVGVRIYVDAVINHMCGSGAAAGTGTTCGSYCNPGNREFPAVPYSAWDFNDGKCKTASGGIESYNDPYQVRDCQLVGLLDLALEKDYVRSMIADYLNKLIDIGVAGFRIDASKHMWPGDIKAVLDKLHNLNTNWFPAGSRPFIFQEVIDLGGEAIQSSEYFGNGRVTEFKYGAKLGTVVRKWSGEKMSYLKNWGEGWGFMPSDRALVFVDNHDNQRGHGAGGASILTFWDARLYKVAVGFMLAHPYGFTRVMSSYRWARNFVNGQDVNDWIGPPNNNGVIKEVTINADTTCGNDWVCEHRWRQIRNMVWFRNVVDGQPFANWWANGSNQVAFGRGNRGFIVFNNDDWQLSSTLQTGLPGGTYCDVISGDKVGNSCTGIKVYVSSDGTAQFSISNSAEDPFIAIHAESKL
# protocol details: Inhibitory kinetics of α-amylase (nonlinear regression, Excel Solver)
# Assay type: biochemical
# condition label: supplement, competitive inhibition model; read-out: K ic (Solver fit)
pKi: −log10 of the molar value.

>  <compound>
O=c1cc(-c2ccc(O)c(O)c2)oc2cccc(O)c12 [B4]

>  <pKi>
3.88

$$$$
>  <compound>
O=c1c(O)c(-c2ccc(O)cc2)oc2cc(O)ccc12 [C5]

>  <pKi>
4.15

$$$$

----------
# assay target: α-amylase from porcine pancreas (Sus scrofa)
# Construct: α-Amylase from porcine pancreas; purchased Sigma-Aldrich Co. LLC (St. Louis, MO); host or cells: porcine pancreas (tissue-derived commercial preparation)
# protocol details: Inhibitory kinetics of α-amylase (nonlinear regression, Excel Solver)
# Type: biochemical
# condition label: competitive inhibition constant; ± SD (jackknife); read-out: Kic
The following compounds are listed with their measured Ki values.

>  <compound>
O=c1cc(-c2ccc(O)c(O)c2)oc2cccc(O)c12 [B4]

>  <assay target>
α-amylase from porcine pancreas (Sus scrofa)

>  <Ki [µM]>
132

$$$$
>  <compound>
O=c1c(O)c(-c2ccc(O)cc2)oc2cc(O)ccc12 [C5]

>  <assay target>
α-amylase from porcine pancreas (Sus scrofa)

>  <Ki [µM]>
71

$$$$

----------
# assay target: porcine pancreatic α-amylase (Sus scrofa, UniProt P00690)
# Construct: α-Amylase from porcine pancreas; purchased Sigma-Aldrich Co. LLC (St. Louis, MO); host or cells: porcine pancreas (tissue-derived commercial preparation)
# Sequence (P00690 16-511): as above
# protocol details: In vitro pancreatic α-amylase inhibition assay (CNPG3 substrate, 405 nm)
# Assay type: biochemical
# condition label: 200 µM; mean ± SEM; read-out: Inhibition (%) at the highest tested concentration
Entries annotated with measured inhibition at 200 µM

>  <compound>
O=C1C[C@@H](c2ccc(O)cc2)Oc2cc(O)cc(O)c21 [E1, Naringenin]

>  <inhibition at 200 µM>
< 20%

$$$$
>  <compound>
O=c1cc(-c2ccccc2)oc2ccccc12 [A1, Flavone]

>  <inhibition at 200 µM>
< 20%

$$$$
>  <compound>
C[C@@H]1O[C@@H](OC[C@H]2O[C@@H](Oc3c(-c4ccc(O)c(O)c4)oc4cc(O)cc(O)c4c3=O)[C@H](O)[C@@H](O)[C@@H]2O)[C@H](O)[C@H](O)[C@H]1O [D19, Rutin]

>  <inhibition at 200 µM>
< 20%

$$$$
>  <compound>
O=c1c(O)c(-c2ccc(O)c(O)c2)oc2ccccc12 [A5]

>  <inhibition at 200 µM>
31%

$$$$

----------
# assay target: porcine pancreatic α-amylase (Sus scrofa)
# Construct: α-Amylase from porcine pancreas; purchased Sigma-Aldrich Co. LLC (St. Louis, MO); host or cells: porcine pancreas (tissue-derived commercial preparation)
# protocol details: In vitro pancreatic α-amylase inhibition assay (CNPG3 substrate, 405 nm);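 also: enzyme rate taken from the absorbance slope between 5 and 30 min of CNPG3 hydrolysis, inhibition derived from these rates, at least three independent experiments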
# Type: biochemical
# condition label: up to the highest tested concentration (200 µM)
test readout: Inhibition of α-amylase activity (in words)

>  <molecule>
O=C1C[C@@H](c2ccc(O)c(O)c2)Oc2cc(O)cc(O)c21 [E2, Eriodictyol]

>  <value observed>
not able to inhibit

$$$$
>  <molecule>
O=C1C[C@@H](c2ccc(O)cc2)Oc2cc(O)cc(O)c21 [E1, Naringenin]

>  <value observed>
not able to inhibit

$$$$
>  <molecule>
O=C1c2c(O)cc(O)cc2OC(c2ccc(O)c(O)c2)C1O (stereo not drawn)

>  <value observed>
not able to inhibit

$$$$
